Data credit: patent US20190233498A1

Target: T1, human VIP (human)
T1 construct: also called Vasoactive Intestinal Peptide
T1 peptide: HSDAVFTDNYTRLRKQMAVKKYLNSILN
Assay: SPR, Ab immobilised
Consider the following binders; for each one, report its kon.
API: value field is a number in M⁻¹ s⁻¹; no unit string.

**Q:** Quick one: kon for anti-PACAP antibody Ab11 (antibody, human IgG1, kappa, N297A, V domains shown, full-length rabbit/human chimeric antibody) VH: QSVEESGGRLVTPGTPLTLTCTASGFSLSRYAMGWVRQAPGKGLEWIGDISTYGTTDYASWVNGRFTISRTSTTVTLKMTSLTTEDTATYFCARDYWLSLWGQGTLVTVSS VL: AAVLTQTPSPVSAAVGGTVTIKCQSSQSVYDNNALAWYQQKPGQPPKLLIYAASNLASGVPDRFSGSGSGTQFTLTISGVQCDDAATYYCLGGYDDAADNAFGGGTEVVVKR ?
**A:** 200000

**Q:** Data request, read-out kon, for anti-PACAP antibody Ab6 (antibody, human IgG1, kappa, N297A, V domains shown, full-length rabbit/human chimeric antibody) VH: LEQSGGGAEGGLVKPGGSLELCCKASGFSLSSTYWMCWVRQAPGKGLEWIGCIYTGSGSTDYASWVNGQFTLSRDIDQSTGCLQLNSLTVADTAMYYCTKNFDLWGPGTLVTVSS VL: AQVLTQTPSSVSAAVGGTVTINCQSSPSVYSNNYLSWFQQKPGQPPKGLIADASTLASGVPSRFKGSGSGTQFTLTISGVQCDDAAAYYCLGYYDCGSTDCHAFGGGTEVVVKR
**A:** 3100

**Q:** Report kon for anti-PACAP antibody Ab22 (antibody, human IgG1, kappa, N297A, V domains shown, full-length rabbit/human chimeric antibody; PACAP38 specific) VH: QEQLVESGGGLVQPEGSLTLTCTASGFDFSSNAMCWVRQAPGKGLEWIGSIYNADGKNYYAIWAKGRFTISRTSSTTVTLQMTSLTAADTATYFCARDFDLWGQGTLVTVSS VL: AAVLTQTPSPVSAAVGGTVTINCQSSQSVYDNDWLAWFQQKPGQPPKLLIYLTSTLASGVPSRFSGSGSGTQFTLTISGVQCDDAATYYCLGGYDEDGDTHVFGGGTEVVVKR please.
**A:** 270000

**Q:** // kon lookup, key: anti-PACAP antibody Ab9.H (antibody, human IgG1, kappa, N297A, V domains shown, humanized form of Ab9, full length) VH: EVQLVESGGGLVQPGGSLRLSCAASGFTVSRDYWICWVRQAPGKGLEWIGCISAGGGSTDYANWVNGRFTISRDISKNTGYLQMNSLRAEDTAVYYCAGNLEIWGQGTLVTVSS VL: DIQMTQSPSTLSASVGDRVTITCQSSPSIYSGAFLSWYQQKPGKAPKFLIYEASKLASGVPSRFSGSGSGTEFTLTISSLQPDDFATYYCLGFYDCSSVDCHAFGGGTKVEIKR
**A:** 93000

**Q:** What value of measured kon is listed for anti-PACAP antibody Ab14 (antibody, human IgG1, kappa, N297A, V domains shown, full-length rabbit/human chimeric antibody) VH: QSVEASGGRLVTPGTPLTLTCTVSGFSLSSAAMNWVRQAPGKGLEWIGFIEYSKNIVYASWAKGRFTISKVSSTTVDLKMTSPTTEDTATYFCARGGGEFFIWGQGTLVTVSS VL: AQVLTQTPSSVSAAVGGTVTINCQSSQSVYSNNRLSYYQQKPGQPPKLLIYEASSLAYGVPSRFKGSGSGTQFTLTISDLECDDAATYYCAGAYSNSIYSFGGGTEVVVKR ?
**A:** 270000

**Q:** Please give the measured kon for this binder: anti-PACAP antibody Ab15 (antibody, human IgG1, kappa, N297A, V domains shown, full-length rabbit/human chimeric antibody) VH: QSVEASGGHLVTPGTPLTLTCTVSGFSLSSAAMNWVRQAPGKGLEWIGSVDERQNKYYASWAKGRFTISRTSSTTVNLKMTSPTTEDTATYFCARGGGEFFIWGQGTLVTVSS VL: AQVLTQTPSSVSAAVGGTVTINCQSSQSVYSNNRLSWYQQKPGQPPNLLIYEASSLASGVPSRFSGSGSGTQFTLTISDLECDDAATYYCAGAYNTGIYGFGGGTEVVVKR
**A:** 160000

**Q:** Query: kon; subject: anti-PACAP antibody Ab23 (antibody, human IgG1, kappa, N297A, V domains shown, full-length rabbit/human chimeric antibody; PACAP38 specific) VH: QSVEESGGRLVTPGTPLTLTCTVSGFSLNNYAMSWVRQAPGKGLEWIGIMGVNDITYYASWAKGRFTISKTSTTVDLKMTSLTTEDTATYFCTREIRDDGDSSDKLWGPGTLVTVSS VL: AIKMTQTPSSVSAAVGGTVTINCQASEDIYTNLAWYQQKPGQPPNLLIYDASDLASGVPSRFSGSGDGTQFTLTISAVQCEDAATYYCQGVAWSSNTGYGSAFGGGTEVVVKR
**A:** 430000
